Values from PubChem BioAssay AID1963960

# System: MDA-MB-468 spheroids with HUVEC/MSC, viability
# test_description: Anticancer human tumor MDA-MB-468 cell line growth inhibition [PI3K]; active = viability on the fitted dose curve at most 10% of control; inactive = the rest;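 note: spheroids exposed to agents for seven days before readout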
# applied_conditions: second compound 0.0316 µM; first compound 10 µM
# Source text: Combinatorial screen of targeted agents with the PI3K inhibitors inavolisib, alpelisib, duvelisib, and copanlisib in multi-cell type tumor spheroids A high-throughput screen of multi-cell type tumor spheroids was designed to identify active combinations of targeted small molecules and PI3K pathway inhibitors. […] Compounds. […] If the clinical Cmax for an agent had not been determined, the highest concentration tested was 10 microM. […]
Just give me one of these, please: active, inactive

Q) Entry CC(Cn1ccc(-c2ccc(C#N)c(Cl)c2)n1)NC(=O)c1cc(C(C)O)[nH]n1 (stereo not given) + COc1c(OCCCN2CCOCC2)ccc2c3n(c(=NC(=O)c4cnc(N)nc4)nc12)CCN3 : call = ?
A) inactive

Q) Recorded test call requested for CNC(=O)c1ccc(N2C(=S)N(c3ccc(C#N)c(C(F)(F)F)c3)C(=O)C2(C)C)cc1F + COc1c(OCCCN2CCOCC2)ccc2c3n(c(=NC(=O)c4cnc(N)nc4)nc12)CCN3
A) inactive

Q) // param item: CNC(=O)c1ccc(N2C(=S)N(c3ccc(C#N)c(C(F)(F)F)c3)C(=O)C2(C)C)cc1F + CC(Nc1ccc2c(c1)OCCn1cc(N3C(=O)OCC3C(F)F)nc1-2)C(N)=O ; yields the recorded call
A) inactive

Q) Assay result, entry Cn1nccc1Nc1nccc(-c2ccn(C(CO)c3ccc(Cl)c(F)c3)c(=O)c2)n1 (stereo not given) + Cc1nc(NC(=O)N2CCCC2C(N)=O)sc1-c1ccnc(C(C)(C)C(F)(F)F)c1 — outcome?
A) inactive

Q) What classification did CC1(C)CCC(CN2CCN(c3ccc(C(=O)NS(=O)(=O)c4ccc(NCC5CCOCC5)c([N+](=O)[O-])c4)c(Oc4cnc5[nH]ccc5c4)c3)CC2)=C(c2ccc(Cl)cc2)C1 + Cc1nc(NC(=O)N2CCCC2C(N)=O)sc1-c1ccnc(C(C)(C)C(F)(F)F)c1 end up with in this test?
A) active

Q) Any idea what this test logged for C#Cc1c(F)ccc2cc(O)cc(-c3ncc4c(N5CC6CCC(C5)N6)nc(OCC56CCCN5CC(F)C6)nc4c3F)c12 (stereo not given) + CC(Nc1ncnc2nc[nH]c12)c1cc2cccc(Cl)c2c(=O)n1-c1ccccc1 ?
A) inactive

Q) State the result this test recorded for CC1(C)CCC(CN2CCN(c3ccc(C(=O)NS(=O)(=O)c4ccc(NCC5CCOCC5)c([N+](=O)[O-])c4)c(Oc4cnc5[nH]ccc5c4)c3)CC2)=C(c2ccc(Cl)cc2)C1 + CC(Nc1ccc2c(c1)OCCn1cc(N3C(=O)OCC3C(F)F)nc1-2)C(N)=O .
A) active

Q) Would you mind telling me which call this test gave C#Cc1c(F)ccc2cc(O)cc(-c3ncc4c(N5CC6CCC(C5)N6)nc(OCC56CCCN5CC(F)C6)nc4c3F)c12 (stereo not given) + Cc1nc(NC(=O)N2CCCC2C(N)=O)sc1-c1ccnc(C(C)(C)C(F)(F)F)c1 ?
A) inactive

Q) // outcome(item) with item = Cn1ncc(Cl)c1-c1cc(C(=O)NC(CN)Cc2cccc(F)c2)sc1Cl (stereo not given) + Cc1nc(NC(=O)N2CCCC2C(N)=O)sc1-c1ccnc(C(C)(C)C(F)(F)F)c1
A) active

Q) Per the records of this test, what outcome belongs to C[C@@H](NC(=O)c1ncnc(N)c1Cl)c1ncc(C(=O)Nc2cc(C(F)(F)F)c(Cl)cn2)s1 + COc1c(OCCCN2CCOCC2)ccc2c3n(c(=NC(=O)c4cnc(N)nc4)nc12)CCN3 ?
A) inactive

Q) Tell me the recorded outcome of this test for CCCS(=O)(=O)Nc1ccc(F)c(C(=O)c2c[nH]c3ncc(-c4ccc(Cl)cc4)cc23)c1F + COc1c(OCCCN2CCOCC2)ccc2c3n(c(=NC(=O)c4cnc(N)nc4)nc12)CCN3 .
A) inactive

Q) Could you kindly confirm the outcome this assay logged for Cn1nccc1Nc1nccc(-c2ccn(C(CO)c3ccc(Cl)c(F)c3)c(=O)c2)n1 (stereo not given) + CC(Nc1ncnc2nc[nH]c12)c1cc2cccc(Cl)c2c(=O)n1-c1ccccc1 ?
A) inactive

Q) Name the outcome recorded for CC1(C)CCC(CN2CCN(c3ccc(C(=O)NS(=O)(=O)c4ccc(NCC5CCOCC5)c([N+](=O)[O-])c4)c(Oc4cnc5[nH]ccc5c4)c3)CC2)=C(c2ccc(Cl)cc2)C1 + CC(Nc1ncnc2nc[nH]c12)c1cc2cccc(Cl)c2c(=O)n1-c1ccccc1 in the assay.
A) inactive

Q) How did this test come out for CC1(C)CCC(Nc2ncc(C(F)(F)F)c(-c3c[nH]c4c(P(C)(C)=O)c(C#N)ccc34)n2)CN1 (stereo not given) + COc1c(OCCCN2CCOCC2)ccc2c3n(c(=NC(=O)c4cnc(N)nc4)nc12)CCN3 ?
A) active

Q) // return assay outcome for C=CC(=O)N1CCN(c2nc(=O)n(-c3c(C)ccnc3C(C)C)c3nc(-c4c(O)cccc4F)c(F)cc23)C(C)C1 (stereo not given) + CC(Nc1ncnc2nc[nH]c12)c1cc2cccc(Cl)c2c(=O)n1-c1ccccc1
A) inactive

Q) Hello, I am checking results. What call was entered for C=CC(=O)N1CCN(c2nc(=O)n(-c3c(C)ccnc3C(C)C)c3nc(-c4c(O)cccc4F)c(F)cc23)C(C)C1 (stereo not given) + CC(Nc1ccc2c(c1)OCCn1cc(N3C(=O)OCC3C(F)F)nc1-2)C(N)=O ?
A) inactive

Q) // outcome(item) with item = CC(C)NCC(C(=O)N1CCN(c2ncnc3c2C(C)CC3O)CC1)c1ccc(Cl)cc1 (stereo not given) + CC(Nc1ccc2c(c1)OCCn1cc(N3C(=O)OCC3C(F)F)nc1-2)C(N)=O
A) inactive

Q) Just curious, what result did Cn1nccc1Nc1nccc(-c2ccn(C(CO)c3ccc(Cl)c(F)c3)c(=O)c2)n1 (stereo not given) + COc1c(OCCCN2CCOCC2)ccc2c3n(c(=NC(=O)c4cnc(N)nc4)nc12)CCN3 get here?
A) inactive

Q) How was CC(C)NCC(C(=O)N1CCN(c2ncnc3c2C(C)CC3O)CC1)c1ccc(Cl)cc1 (stereo not given) + Cc1nc(NC(=O)N2CCCC2C(N)=O)sc1-c1ccnc(C(C)(C)C(F)(F)F)c1 classified in this test?
A) inactive

Q) What call does the record list for CC(C)NCC(C(=O)N1CCN(c2ncnc3c2C(C)CC3O)CC1)c1ccc(Cl)cc1 (stereo not given) + COc1c(OCCCN2CCOCC2)ccc2c3n(c(=NC(=O)c4cnc(N)nc4)nc12)CCN3 ?
A) inactive

* * *

# Test system: MDA-MB-468 spheroids with HUVEC/MSC, viability
# test_description: Anticancer human tumor MDA-MB-468 cell line growth inhibition [PI3K];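 note: spheroids exposed to agents for seven days before readout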
# applied_conditions: second compound 0.1 µM; first compound 0.316 µM; active compounds read low
# Source text: Combinatorial screen of targeted agents with the PI3K inhibitors inavolisib, alpelisib, duvelisib, and copanlisib in multi-cell type tumor spheroids A high-throughput screen of multi-cell type tumor spheroids was designed to identify active combinations of targeted small molecules and PI3K pathway inhibitors. […] Compounds. […] If the clinical Cmax for an agent had not been determined, the highest concentration tested was 10 microM. […]
Could you mark each record fulfilled if its viability, T/C falls strictly under 50%, and not fulfilled if it equals or exceeds it?

Q) Criterion: viability, T/C strictly below 50%. Is it met by Cn1ncc(Cl)c1-c1cc(C(=O)NC(CN)Cc2cccc(F)c2)sc1Cl (stereo unspecified) + CC(Nc1ccc2c(c1)OCCn1cc(N3C(=O)OCC3C(F)F)nc1-2)C(N)=O ?
A) fulfilled

Q) Find out if reported viability, T/C for CCN1CCN(Cc2ccc(Nc3ncc(F)c(-c4cc(F)c5nc(C)n(C(C)C)c5c4)n3)nc2)CC1 + COc1c(OCCCN2CCOCC2)ccc2c3n(c(=NC(=O)c4cnc(N)nc4)nc12)CCN3 is less than 50%
A) not fulfilled

Q) I wonder whether Cn1nccc1Nc1nccc(-c2ccn(C(CO)c3ccc(Cl)c(F)c3)c(=O)c2)n1 (stereo unspecified) + CC(Nc1ncnc2nc[nH]c12)c1cc2cccc(Cl)c2c(=O)n1-c1ccccc1 has viability, T/C below 50%. Can you tell?
A) not fulfilled

Q) Below 50% on viability, T/C? Entry CC1(C)CCC(Nc2ncc(C(F)(F)F)c(-c3c[nH]c4c(P(C)(C)=O)c(C#N)ccc34)n2)CN1 (stereo unspecified) + Cc1nc(NC(=O)N2CCCC2C(N)=O)sc1-c1ccnc(C(C)(C)C(F)(F)F)c1
A) fulfilled

Q) Check if viability, T/C falls below 50% for CNC(=O)c1ccc(N2C(=S)N(c3ccc(C#N)c(C(F)(F)F)c3)C(=O)C2(C)C)cc1F + CC(Nc1ccc2c(c1)OCCn1cc(N3C(=O)OCC3C(F)F)nc1-2)C(N)=O .
A) not fulfilled
